tested on: SF-539 CNS; experiment: NCI tumour cell line growth inhibition, 48 h
Provide the recorded TGI for the entries that follow.
Give your result in µM as a bare value.

input: For SF-539 CNS, give the measured TGI of the entry `O=C(CSc1nnc(-c2ccc(-c3nc4ccc(Cl)cc4[nH]3)cc2)o1)Nc1ccc(Cl)cc1`
output: 3.15

input: For SF-539 CNS, give the measured TGI of the entry `COc1cc2cc(C(=O)N3C[C@@H](CCl)c4c3cc(OC(=O)N(C)CCSSCCN3CCOCC3)c3ccccc43)[nH]c2c(OC)c1OC`
output: 0.116

input: For SF-539 CNS, give the measured TGI of the entry `Brc1ccc(/C=C/c2n(Cc3ccc4ccccc4c3)c3ccccc3[n+]2Cc2ccc3ccccc3c2)cc1`
output: 3.04

---

tested on: MDA-MB-468 breast; assay: NCI tumour cell line growth inhibition, 48 h
Experimental readout: TGI (µM)
Give your result in µM as a bare value.

input: For `COc1ccc2[nH]cc(-c3cc4nc(-c5cn(C)c6ncccc56)cc(N)n4n3)c2c1` , write its TGI.
output: 3.12

input: For `C[C@H](CCOc1cccc(CC(=O)O)c1)N(Cc1cccc(C(F)(F)F)c1Cl)CC(c1ccccc1)c1ccccc1` , write its TGI.
output: 24

input: For N#CC(I)CS(=O)(=O)c1ccccc1 (stereo unspecified) , write its TGI.
output: 14.1

input: For `NC(=O)c1cc(I)ccc1NC(=O)/C=C/c1ccccc1` , write its TGI.
output: 47.1

input: For `C=C(C)[C@@H]1CC[C@]2(CN)CC[C@]3(C)[C@H](CC[C@@H]4[C@@]5(C)CCCNC(C)(C)[C@@H]5CC[C@]43C)[C@@H]12` , write its TGI.
output: 3.52
